- MEASURED TARGET: D(2) dopamine receptor (Rattus norvegicus, UniProt P61169)
- Sequence (P61169 whole entry): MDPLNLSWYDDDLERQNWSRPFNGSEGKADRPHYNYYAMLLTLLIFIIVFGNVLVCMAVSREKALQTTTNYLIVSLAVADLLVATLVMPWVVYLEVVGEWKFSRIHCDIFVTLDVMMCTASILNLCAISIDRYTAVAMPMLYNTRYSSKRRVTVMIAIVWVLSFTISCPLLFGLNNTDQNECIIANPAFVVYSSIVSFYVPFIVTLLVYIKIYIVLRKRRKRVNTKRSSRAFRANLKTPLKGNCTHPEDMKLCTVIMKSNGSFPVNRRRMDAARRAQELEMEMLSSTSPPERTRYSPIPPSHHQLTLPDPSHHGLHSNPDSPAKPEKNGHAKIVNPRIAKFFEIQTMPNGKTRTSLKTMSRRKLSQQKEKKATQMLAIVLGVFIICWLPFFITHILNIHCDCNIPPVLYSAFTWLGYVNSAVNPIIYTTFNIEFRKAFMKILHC
- METHOD DESCRIPTION: In vitro low binding affinity towards Dopamine receptor D2 by the displacement of [3H]spiperone radioligand in rat striatal membranes
- Format: cell membranes, Membrane
ATTRIBUTE MEASURED: pKi
Note on pKi: it is the negative log10 of concentration, concentration in mol/L.

Clc1c[nH]c2cccc(OCCNCCCCc3ccccc3)c12 | 7.80
Fc1ccc(CNCCOc2ccc(Cl)c3[nH]cc(Cl)c23)cc1 | 7.23
O=C1Cc2c(OCCN3CCc4ccccc4C3)ccc(F)c2N1 | 8.30
O=C1Cc2c(OCCNCc3ccccc3)ccc(Cl)c2N1 | 8.55
CN(CCOc1cccc2c1CC(=O)N2)Cc1ccccc1 | 7.30

Write down pKi measured for item O=C1Cc2c(OCCNCc3ccsc3)ccc(F)c2N1
7.75

Write down pKi measured for item NCCOc1cccc2c1CC(=O)N2
6.57

Write down pKi measured for item O=C1Cc2c(OCCNCc3ccc(-c4ccccc4)cc3)ccc(F)c2N1
7.56

Write down pKi measured for item CN(CCCC(=O)c1ccc(F)cc1)CCOc1cccc2c1CC(=O)N2
7.62

Write down pKi measured for item O=C1Cc2c(OCCNCC3CCCCC3)ccc(F)c2N1
8.25

Write down pKi measured for item O=C1Cc2c(OCCNCc3ccsc3)ccc(Cl)c2N1
8.48

Write down pKi measured for item NCCOc1ccc(F)c2c1CC(=O)N2
6.04

----------
- MEASURED TARGET: D(2) dopamine receptor (Rattus norvegicus)
- METHOD DESCRIPTION: In vitro high binding affinity towards Dopamine receptor D2 by the displacement of [3H]quinpirole radioligand in rat striatal membranes
- Type: cell membranes, Membrane
Binary label based on Ki with cut-off 0.9 nM: below gives Fulfilled, not below gives Not fulfilled.

Please review the following examples before continuing.
O=C1Cc2c(OCCN3Cc4ccccc4C3)ccc(F)c2N1 | Not fulfilled
c1ccc(CNCCOc2cccc3[nH]ccc23)cc1 | Not fulfilled
Clc1ccc(OCCNCc2ccccc2)c2c(Cl)c[nH]c12 | Not fulfilled

Hello, is Ki of the following compound strictly smaller than 0.9 nM? O=C1Cc2c(OCCN3CCc4ccccc4C3)ccc(F)c2N1
Fulfilled

Hello, is Ki of the following compound strictly smaller than 0.9 nM? O=C1Cc2c(OCCN3CCc4ccccc4C3)ccc(Cl)c2N1
Fulfilled

Hello, is Ki of the following compound strictly smaller than 0.9 nM? O=C1Cc2c(cccc2OCCNCc2ccccc2)N1
Fulfilled

----------
- MEASURED TARGET: UniProt:P61169
- METHOD DESCRIPTION: In vitro high binding affinity towards Dopamine receptor D2 by the displacement of [3H]quinpirole radioligand in rat striatal membranes
- Assay type: cell membranes, Membrane
ATTRIBUTE MEASURED: pKi
Note on pKi: it is the negative log10 of concentration, concentration in mol/L.

Use the examples below as a reference point.
Cc1ccc(CNCCOc2ccc(Cl)c3c2CC(=O)N3)cc1 | 9.19
CN(CCOc1cccc2c1CC(=O)N2)Cc1ccccc1 | 9.12
O=C1Cc2c(ccc3c2O[C@@H](CNCc2ccccc2)CC3)N1 | 9.85
O=C1Cc2c(OCCN3Cc4ccccc4C3)ccc(Cl)c2N1 | 9.36
O=C1Cc2c(OCCNCc3cccs3)ccc(F)c2N1 | 9.18
CN(CCCC(=O)c1ccc(F)cc1)CCOc1cccc2c1CC(=O)N2 | 8.51

Write down pKi measured for item NCCOc1ccc(F)c2c1CC(=O)N2
7.92

Write down pKi measured for item CN(CCOc1ccc(Cl)c2c1CC(=O)N2)Cc1ccccc1
8.59

Write down pKi measured for item c1ccc(CNC[C@H]2CCc3ccc4[nH]ccc4c3O2)cc1
8.72

Write down pKi measured for item O=C1Cc2c(OCCNCc3ccc(Cl)cc3)ccc(Cl)c2N1
8.85

Write down pKi measured for item c1ccc(CCCCNCCOc2cccc3[nH]ccc23)cc1
8.28

Write down pKi measured for item O=C1Cc2c(cccc2OCCNCCCCc2ccccc2)N1
9.64

Write down pKi measured for item CNCCOc1cccc2c1CC(=O)N2
8.70

Write down pKi measured for item Oc1ccc2c(c1)O[C@@H](CNCc1ccccc1)CN2
8.17

Write down pKi measured for item O=C1Cc2c(OCCNCc3ccccc3)ccc(Cl)c2N1
9.39

Write down pKi measured for item O=C1Cc2c(OCCNCc3ccsc3)ccc(F)c2N1
9.08

Write down pKi measured for item O=C1Cc2c(OCCNCc3ccc4ccccc4c3)ccc(F)c2N1
9.20

Write down pKi measured for item O=C1Cc2c(OCCNCC3CCCCC3)ccc(F)c2N1
9.19

----------
Each item that follows carries a reported pKi.
- MEASURED TARGET: D(2) dopamine receptor (Rattus norvegicus, UniProt P61169)
- METHOD DESCRIPTION: In vitro low binding affinity towards Dopamine receptor D2 by the displacement of [3H]spiperone radioligand in rat striatal membranes
- Type: cell membranes, Membrane
Note on pKi: it is the negative log10 of concentration, concentration in mol/L.

O=C1Cc2c(ccc3c2O[C@@H](CNCc2ccccc2)CC3)N1 | 8.23
Oc1ccc2c(c1)O[C@@H](CNCc1ccccc1)CN2 | 6.89

Could you now consider this next compound?
Write down pKi measured for item O=C(c1c[nH]c2cccc(OCCNCc3ccccc3)c12)C(F)(F)F
7.78

----------
- MEASURED TARGET: 5-hydroxytryptamine receptor 1A (Rattus norvegicus, UniProt P19327)
- Sequence (P19327 whole entry): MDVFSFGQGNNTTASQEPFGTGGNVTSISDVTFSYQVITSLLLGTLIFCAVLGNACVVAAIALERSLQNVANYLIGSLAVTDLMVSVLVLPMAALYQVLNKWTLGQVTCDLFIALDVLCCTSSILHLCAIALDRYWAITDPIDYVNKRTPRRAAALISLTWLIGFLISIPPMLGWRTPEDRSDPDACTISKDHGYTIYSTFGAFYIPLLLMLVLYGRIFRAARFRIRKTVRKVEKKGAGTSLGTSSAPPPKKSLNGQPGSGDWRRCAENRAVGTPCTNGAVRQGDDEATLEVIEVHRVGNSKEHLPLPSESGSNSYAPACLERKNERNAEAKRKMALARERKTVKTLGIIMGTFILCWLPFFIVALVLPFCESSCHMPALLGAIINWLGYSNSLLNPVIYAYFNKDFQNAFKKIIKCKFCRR
- METHOD DESCRIPTION: In vitro binding affinity towards 5-hydroxytryptamine 1A r receptor by the displacement of [3H]8-OH-DPAT radioligand in rat hippocampal homogenates
- Type: tissue-based, Hippocampus
ATTRIBUTE MEASURED: pKi
Note on pKi: it is the negative log10 of concentration, concentration in mol/L.

Write down pKi measured for item Clc1c[nH]c2cccc(OCCNCCCCc3ccccc3)c12
9.30

----------
- MEASURED TARGET: Adrenergic receptor alpha-1 (Rattus norvegicus, UniProt P15823+P23944+P43140)
- Sequence (P15823 whole entry): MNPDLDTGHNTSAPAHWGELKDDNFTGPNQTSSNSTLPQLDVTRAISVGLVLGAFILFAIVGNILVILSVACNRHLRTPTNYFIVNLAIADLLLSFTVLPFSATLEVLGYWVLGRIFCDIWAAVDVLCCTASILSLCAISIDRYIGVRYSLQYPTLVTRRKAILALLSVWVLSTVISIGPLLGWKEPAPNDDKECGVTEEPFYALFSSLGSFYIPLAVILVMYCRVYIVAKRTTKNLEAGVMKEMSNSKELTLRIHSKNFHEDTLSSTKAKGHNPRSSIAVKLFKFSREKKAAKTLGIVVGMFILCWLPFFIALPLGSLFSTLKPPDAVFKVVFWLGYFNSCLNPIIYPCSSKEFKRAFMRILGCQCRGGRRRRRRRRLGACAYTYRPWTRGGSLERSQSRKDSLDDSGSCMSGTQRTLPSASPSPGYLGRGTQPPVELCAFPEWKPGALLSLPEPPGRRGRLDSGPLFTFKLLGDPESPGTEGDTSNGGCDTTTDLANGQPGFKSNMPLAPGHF
- Sequence (P23944 whole entry): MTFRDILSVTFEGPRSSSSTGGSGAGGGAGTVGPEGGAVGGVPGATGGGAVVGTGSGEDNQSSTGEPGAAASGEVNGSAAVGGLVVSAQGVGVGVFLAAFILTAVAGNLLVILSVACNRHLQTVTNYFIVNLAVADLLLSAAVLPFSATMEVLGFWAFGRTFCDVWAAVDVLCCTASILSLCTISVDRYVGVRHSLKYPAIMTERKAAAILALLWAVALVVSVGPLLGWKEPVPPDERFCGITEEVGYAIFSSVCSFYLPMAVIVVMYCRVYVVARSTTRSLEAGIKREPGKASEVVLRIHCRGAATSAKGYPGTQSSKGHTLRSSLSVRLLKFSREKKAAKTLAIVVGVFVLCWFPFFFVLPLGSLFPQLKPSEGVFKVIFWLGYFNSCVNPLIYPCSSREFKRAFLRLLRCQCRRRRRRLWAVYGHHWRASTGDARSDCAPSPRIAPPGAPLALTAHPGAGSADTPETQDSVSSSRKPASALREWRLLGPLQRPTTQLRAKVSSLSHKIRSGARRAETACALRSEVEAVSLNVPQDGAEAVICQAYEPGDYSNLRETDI
- Sequence (P43140 whole entry): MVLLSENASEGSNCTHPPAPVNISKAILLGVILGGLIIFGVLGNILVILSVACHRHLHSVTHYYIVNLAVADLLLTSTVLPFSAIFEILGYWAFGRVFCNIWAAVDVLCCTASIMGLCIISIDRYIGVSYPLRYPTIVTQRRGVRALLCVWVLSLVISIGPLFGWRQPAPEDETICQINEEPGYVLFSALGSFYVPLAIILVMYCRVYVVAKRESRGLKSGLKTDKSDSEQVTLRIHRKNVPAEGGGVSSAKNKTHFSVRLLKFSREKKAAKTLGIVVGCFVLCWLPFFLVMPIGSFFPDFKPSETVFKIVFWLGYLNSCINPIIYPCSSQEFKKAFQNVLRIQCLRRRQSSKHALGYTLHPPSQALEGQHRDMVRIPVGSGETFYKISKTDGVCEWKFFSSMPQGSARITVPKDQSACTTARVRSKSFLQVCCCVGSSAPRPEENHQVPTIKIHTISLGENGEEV
- METHOD DESCRIPTION: In vitro binding affinity towards alpha-1 adrenergic receptor by the displacement of [3H]prazosin radioligand in rat cortical homogenates
Binary label based on Ki with cut-off 200 nM: below gives 1.0, not below gives 0.0.

Hello, is Ki of the following molecule strictly smaller than 200 nM? O=C1Cc2c(OCCNCc3ccc(-c4ccccc4)cc3)ccc(Cl)c2N1
0.0

Hello, is Ki of the following molecule strictly smaller than 200 nM? O=C(c1c[nH]c2c(Cl)ccc(OCCNCc3ccccc3)c12)C(F)(F)F
1.0

Hello, is Ki of the following molecule strictly smaller than 200 nM? CN(CCOc1ccc(Cl)c2c1CC(=O)N2)Cc1ccccc1
1.0
